Numbers sourced from paper PMC9835529.

pIC50 reference
Target chain: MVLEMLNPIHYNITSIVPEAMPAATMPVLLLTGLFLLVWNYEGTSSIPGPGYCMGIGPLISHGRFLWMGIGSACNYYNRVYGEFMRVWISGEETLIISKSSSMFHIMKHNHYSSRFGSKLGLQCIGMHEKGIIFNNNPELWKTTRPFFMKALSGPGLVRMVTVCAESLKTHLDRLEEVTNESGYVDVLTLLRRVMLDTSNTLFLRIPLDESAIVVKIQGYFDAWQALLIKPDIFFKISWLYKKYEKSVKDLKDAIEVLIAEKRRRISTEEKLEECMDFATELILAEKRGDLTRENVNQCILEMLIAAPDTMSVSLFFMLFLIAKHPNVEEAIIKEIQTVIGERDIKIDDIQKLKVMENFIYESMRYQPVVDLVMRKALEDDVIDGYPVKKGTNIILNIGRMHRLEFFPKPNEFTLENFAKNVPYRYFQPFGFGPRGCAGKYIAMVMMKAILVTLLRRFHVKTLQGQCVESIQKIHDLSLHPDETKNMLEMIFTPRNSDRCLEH
Scale: negative log10 of molar concentration, which is what pIC50 denotes.

Before answering, review these 3 worked examples.
>  <Structure>
COc1cccc(-c2csc(N/N=C/c3cc4cc(OC)ccc4nc3Cl)n2)c1

>  <Measured Result>
7.42

$$$$
>  <Structure>
COc1ccc2nc(Cl)c(/C=N/Nc3nc(-c4cccc([N+](=O)[O-])c4)cs3)cc2c1

>  <Measured Result>
7.48

$$$$
>  <Structure>
COc1ccc2nc(Cl)c(C=NNc3nc(-c4ccncc4)cs3)cc2c1

>  <Measured Result>
7.38

$$$$

Now, please, on to the next compound.
What does the data say about its pIC50? Entry: COc1ccc2nc(Cl)c(C=NNc3nc(-c4cccc(F)c4)cs3)cc2c1 7.33

###

Test system: Lanosterol 14α-demethylase (LMD, CYP51A1)
Test: LDM (CYP51A1) inhibition by LC-MS-MS quantification of ergosterol level
Format: cell-based
Conditions: C. parapsilosis, 0.24 μg/mL
Description: The activity of the target compounds was tested against Candida strains via the determination of ergosterol production. Ergosterol level was determined using the extract of total sterols from C. albicans (and its other species) following the method described by Breivik and Owades.[63] Quantification of the ergosterol level in this extract was carried out by the recently described method.[58],[64]−[66] […] Thus, the LC-MS-MS-based method that quantifies the ergosterol level was applied. […]
Note to self: values exactly at 60% are fulfilled. So CYP51A1 Inhibition% at or above 60% is fulfilled, below is not fulfilled.

Known results for compounds:
>  <Compound>
COc1ccc2nc(Cl)c(C=NNc3nc(-c4ccncc4)cs3)cc2c1

>  <Classification>
not fulfilled

$$$$
>  <Compound>
CC(=O)N1CCN(c2ccc(OCC3COC(Cn4ccnc4)(c4ccc(Cl)cc4Cl)O3)cc2)CC1 (centres unmarked) [ketoconazole, reference compound]

>  <Classification>
fulfilled

$$$$
>  <Compound>
COc1cccc(-c2csc(N/N=C/c3cc4cc(OC)ccc4nc3Cl)n2)c1

>  <Classification>
not fulfilled

$$$$

// inclusive: CYP51A1 Inhibition% at least 60%? input: COc1ccc2nc(Cl)c(C=NNc3nc(-c4cccc(F)c4)cs3)cc2c1 not fulfilled

###

The following compounds have recorded MIC90 on Salmonella typhimurium ATCC 13311.

Before answering, review these 5 worked examples.
>  <Compound>
COc1ccc2nc(Cl)c(/C=N/Nc3nc(-c4ccc5ccccc5c4)cs3)cc2c1

>  <Experimental Target>
Salmonella typhimurium ATCC 13311

>  <Metric Name>
MIC90

>  <Measured Result>
> 1000 µg/mL

$$$$
>  <Compound>
O=C(N[C@H](CO)[C@H](O)c1ccc([N+](=O)[O-])cc1)C(Cl)Cl [chloramphenicol, reference compound]

>  <Experimental Target>
Salmonella typhimurium ATCC 13311

>  <Metric Name>
MIC90

>  <Measured Result>
31.2 µg/mL

$$$$
>  <Compound>
COc1ccc2nc(Cl)c(C=NNc3nc(-c4cccc(F)c4)cs3)cc2c1

>  <Experimental Target>
Salmonella typhimurium ATCC 13311

>  <Metric Name>
MIC90

>  <Measured Result>
> 1000 µg/mL

$$$$
>  <Compound>
COc1ccc2nc(Cl)c(C=NNc3nc(-c4cccc5ccccc45)cs3)cc2c1

>  <Experimental Target>
Salmonella typhimurium ATCC 13311

>  <Metric Name>
MIC90

>  <Measured Result>
> 1000 µg/mL

$$$$
>  <Compound>
COc1ccc2nc(Cl)c(C=NNc3nc(-c4ccc(Cl)cc4)cs3)cc2c1

>  <Experimental Target>
Salmonella typhimurium ATCC 13311

>  <Metric Name>
MIC90

>  <Measured Result>
> 1000 µg/mL

$$$$

Form field: MIC90 recorded for COc1ccc2nc(Cl)c(C=NNc3nc(-c4ccc(C)cc4)cs3)cc2c1 with Salmonella typhimurium ATCC 13311 (enter value) > 1000 µg/mL

Form field: MIC90 recorded for COc1ccc2nc(Cl)c(/C=N/Nc3nc(-c4ccc(F)cc4)cs3)cc2c1 with Salmonella typhimurium ATCC 13311 (enter value) > 1000 µg/mL

Form field: MIC90 recorded for COc1ccc2nc(Cl)c(/C=N/Nc3nc(-c4ccc(C#N)cc4)cs3)cc2c1 with Salmonella typhimurium ATCC 13311 (enter value) > 1000 µg/mL
